Target: human NaV 1.8 (Homo sapiens, UniProt Q9Y5Y9)
Sequence (Q9Y5Y9 126-1722 limits assumed): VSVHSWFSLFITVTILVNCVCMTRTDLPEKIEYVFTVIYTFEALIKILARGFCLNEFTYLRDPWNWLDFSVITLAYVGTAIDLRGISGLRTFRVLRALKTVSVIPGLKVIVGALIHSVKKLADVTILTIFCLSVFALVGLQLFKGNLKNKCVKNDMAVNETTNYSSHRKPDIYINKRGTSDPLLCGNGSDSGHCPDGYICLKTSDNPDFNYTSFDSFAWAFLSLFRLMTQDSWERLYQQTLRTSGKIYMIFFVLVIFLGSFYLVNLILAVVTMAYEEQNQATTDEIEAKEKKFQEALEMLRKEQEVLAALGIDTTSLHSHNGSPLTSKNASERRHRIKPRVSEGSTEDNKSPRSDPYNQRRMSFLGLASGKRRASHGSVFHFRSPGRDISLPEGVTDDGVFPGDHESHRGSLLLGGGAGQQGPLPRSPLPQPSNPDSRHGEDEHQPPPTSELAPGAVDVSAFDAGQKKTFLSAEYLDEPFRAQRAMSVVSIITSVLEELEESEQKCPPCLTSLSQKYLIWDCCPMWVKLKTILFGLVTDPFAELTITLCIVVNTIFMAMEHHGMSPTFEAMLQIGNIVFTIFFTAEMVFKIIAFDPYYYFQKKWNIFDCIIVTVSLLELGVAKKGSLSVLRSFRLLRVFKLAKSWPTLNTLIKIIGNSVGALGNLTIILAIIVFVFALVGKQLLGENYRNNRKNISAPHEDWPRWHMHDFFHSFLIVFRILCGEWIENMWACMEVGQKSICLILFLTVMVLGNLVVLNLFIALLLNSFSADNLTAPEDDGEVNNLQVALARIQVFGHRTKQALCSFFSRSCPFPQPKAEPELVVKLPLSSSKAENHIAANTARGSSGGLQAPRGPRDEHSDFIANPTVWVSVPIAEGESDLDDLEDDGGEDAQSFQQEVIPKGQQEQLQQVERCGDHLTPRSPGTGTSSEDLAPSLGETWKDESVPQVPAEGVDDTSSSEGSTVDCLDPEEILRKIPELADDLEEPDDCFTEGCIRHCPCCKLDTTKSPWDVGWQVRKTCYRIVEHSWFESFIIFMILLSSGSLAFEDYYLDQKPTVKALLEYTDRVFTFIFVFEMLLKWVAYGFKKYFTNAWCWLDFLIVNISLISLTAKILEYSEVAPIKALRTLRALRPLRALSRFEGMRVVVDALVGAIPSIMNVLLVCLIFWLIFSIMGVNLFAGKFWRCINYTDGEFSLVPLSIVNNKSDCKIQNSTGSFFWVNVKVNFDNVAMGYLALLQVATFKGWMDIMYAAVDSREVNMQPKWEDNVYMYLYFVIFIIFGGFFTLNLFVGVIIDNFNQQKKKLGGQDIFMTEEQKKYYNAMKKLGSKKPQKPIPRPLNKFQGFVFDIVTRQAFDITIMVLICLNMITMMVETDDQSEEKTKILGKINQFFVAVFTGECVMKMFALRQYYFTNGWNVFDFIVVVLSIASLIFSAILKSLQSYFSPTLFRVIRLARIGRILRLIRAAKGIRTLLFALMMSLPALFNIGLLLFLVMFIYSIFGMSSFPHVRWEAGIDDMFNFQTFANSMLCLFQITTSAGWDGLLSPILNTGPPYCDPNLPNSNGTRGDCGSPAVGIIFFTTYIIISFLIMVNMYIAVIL
Experiment: E-VIPR assay detecting and measuring NaV inhibition properties
Settings: HEK cells expressing a truncated form of human NaV 1.8; electrical stimulation, membrane potential FRET dyes
From the text: E-VIPR Assay Detecting and Measuring NaV Inhibition Properties Sodium ion channels are voltage-dependent proteins that can be activated by inducing membrane voltage changes by applying electric fields. […]
pIC50: −log10 of the molar value.
In this section we review reported pIC50 values for a set of compounds.
READOUT_NAME: pIC50

- COMPOUND: "COc1c([C@H]2[C@H](C(=O)Nc3cnc(CO)nc3)O[C@@](C)(C(F)(F)F)[C@H]2C)ccc(F)c1F"
  RESULT: "> 8.00"
- COMPOUND: "COc1c([C@@H]2[C@@H](C(=O)Nc3ccc(C(C)O)nc3)O[C@](C)(C(F)(F)F)[C@@H]2C)ccc(F)c1C(F)F (single isomer, unassigned)"
  RESULT: "≤ 6.00"
- COMPOUND: "CCOc1c([C@H]2[C@H](C(=O)Nc3ccc([C@@H](O)CO)nc3)O[C@@](C)(C(F)(F)F)[C@H]2C)ccc(F)c1F"
  RESULT: "> 8.00"
- COMPOUND: "COc1c([C@H]2[C@H](C(=O)Nc3cnc(CO)c(CO)c3)O[C@@](C)(C(F)(F)F)[C@H]2C)ccc(F)c1F"
  RESULT: "6.00 to 7.00"
- COMPOUND: "Cc1c([C@@H]2[C@@H](C(=O)Nc3ccc(CO)nc3)O[C@](C)(C(F)(F)F)[C@@H]2C)ccc(F)c1F (single isomer, unassigned)"
  RESULT: "≤ 6.00"
- COMPOUND: "COc1c([C@H]2C[C@@](C)(C(F)(F)F)O[C@@H]2C(=O)Nc2ccc([C@H](O)CO)nc2)ccc(F)c1F (single isomer, unassigned)"
  RESULT: "≤ 6.00"
- COMPOUND: "Cc1c([C@H]2[C@H](C(=O)Nc3ccc([C@@H](O)CO)nc3)O[C@@](C)(C(F)(F)F)[C@H]2C)ccc(F)c1F (single isomer, unassigned)"
  RESULT: "7.00 to 8.00"
- COMPOUND: "COCC(O)c1ccc(NC(=O)[C@@H]2O[C@@](C)(C(F)(F)F)[C@@H](C)[C@H]2c2ccc(F)c(F)c2OC)cn1 (single isomer, unassigned)"
  RESULT: "7.00 to 8.00"
- COMPOUND: "C[C@H]1[C@@H](c2ccc(F)c(F)c2OCC(F)F)[C@H](C(=O)Nc2ccc([C@@H](O)CO)nc2)O[C@@]1(C)C(F)(F)F"
  RESULT: "> 8.00"
- COMPOUND: "COc1c([C@H]2C[C@@](C)(C(F)(F)F)O[C@@H]2C(=O)Nc2ccc([C@@H](O)CO)nc2)ccc(F)c1F (relative stereo)"
  RESULT: "≤ 6.00"
- COMPOUND: "COc1c([C@H]2[C@H](C(=O)Nc3ccc([C@H](O)[C@H](C)O)nc3)O[C@@](C)(C(F)(F)F)[C@H]2C)ccc(F)c1F (single isomer, unassigned)"
  RESULT: "> 8.00"
- COMPOUND: "C[C@@]1(C(F)(F)F)C[C@H](c2ccc(OC(F)(F)F)cc2Cl)[C@@H](C(=O)Nc2ccc([C@@H](O)CO)nc2)O1 (single isomer, unassigned)"
  RESULT: "≤ 6.00"
- COMPOUND: "Cc1c([C@H]2[C@H](C(=O)Nc3ccc(CO)nc3)O[C@@](C)(C(F)(F)F)[C@H]2C)ccc(F)c1F (single isomer, unassigned)"
  RESULT: "> 8.00"
- COMPOUND: "CCOc1c([C@@H]2[C@@H](C(=O)Nc3ccc([C@@H](O)CO)nc3)O[C@](C)(C(F)(F)F)[C@@H]2C)ccc(F)c1C (single isomer, unassigned)"
  RESULT: "≤ 6.00"
- COMPOUND: "C[C@H]1[C@@H](c2ccc(F)c(F)c2O)[C@H](C(=O)Nc2cnc(CO)nc2)O[C@@]1(C)C(F)(F)F"
  RESULT: "≤ 6.00"
- COMPOUND: "Cc1c([C@@H]2[C@@H](C(=O)Nc3ccc([C@@H](O)CO)nc3)O[C@@](C)(C(F)(F)F)[C@H]2C)ccc(F)c1F (single isomer, unassigned)"
  RESULT: "≤ 6.00"
- COMPOUND: "COc1c(C2C(C(=O)Nc3ccc(CO)nc3)OC(C)(C(F)(F)F)C2C)cccc1C(F)(F)F (single isomer, unassigned) [Compound 81]"
  RESULT: "≤ 6.00"
- COMPOUND: "COc1c([C@H]2[C@H](C(=O)Nc3ccc([C@H](O)CO)nc3)O[C@@](C)(C(F)(F)F)[C@H]2C)ccc(F)c1C(F)F (single isomer, unassigned)"
  RESULT: "> 8.00"
- COMPOUND: "COc1c([C@H]2[C@H](C(=O)Nc3ccc(C(O)CF)nc3)O[C@@](C)(C(F)(F)F)[C@H]2C)ccc(F)c1F (single isomer, unassigned)"
  RESULT: "> 8.00"
- COMPOUND: "COc1c(C2C(C(=O)Nc3ccc(CO)nc3)OC(C)(C(F)(F)F)C2C)ccc(C(F)F)c1F (single isomer, unassigned) [Compound 91]"
  RESULT: "7.00 to 8.00"
- COMPOUND: "COc1c(C2C(C(=O)Nc3cnc(C(O)CO)nc3)OC(C)(C(F)(F)F)C2C)ccc(F)c1F (single isomer, unassigned) [Compound 11]"
  RESULT: "> 8.00"
- COMPOUND: "COc1c([C@H]2[C@H](C(=O)Nc3ccc([C@@H](C)O)nc3)O[C@@](C)(C(F)(F)F)[C@H]2C)ccc(F)c1F"
  RESULT: "> 8.00"
- COMPOUND: "Cc1c([C@@H]2[C@@H](C)[C@@](C)(C(F)(F)F)O[C@H]2C(=O)Nc2ccc([C@@H](O)CO)nc2)ccc(F)c1F (single isomer, unassigned)"
  RESULT: "≤ 6.00"

----------
Biological target: human NaV 1.8 (Homo sapiens)
Test: E-VIPR assay detecting and measuring NaV inhibition properties
Conditions: HEK cells expressing a truncated form of human NaV 1.8; electrical stimulation, membrane potential FRET dyes
Excerpt: E-VIPR Assay Detecting and Measuring NaV Inhibition Properties Sodium ion channels are voltage-dependent proteins that can be activated by inducing membrane voltage changes by applying electric fields. […]
READOUT_NAME: IC50

- COMPOUND: "C[C@@]1(C(F)(F)F)C[C@@H](c2ccc(OC(F)(F)F)cc2Cl)[C@H](C(=O)Nc2ccc([C@@H](O)CO)nc2)O1 (single isomer, unassigned)"
  RESULT: "≥ 1 µM"
- COMPOUND: "[2H]C([2H])([2H])Oc1c([C@H]2[C@H](C(=O)Nc3ccc([C@@H](O)CO)nc3)O[C@@](C)(C(F)(F)F)[C@H]2C)ccc(F)c1F"
  RESULT: "< 0.01 µM"
- COMPOUND: "COc1c([C@H]2C[C@@](C)(C(F)(F)F)O[C@@H]2C(=O)Nc2cnc(C(O)CO)nc2)ccc(F)c1F (single isomer, unassigned)"
  RESULT: "≥ 1 µM"
- COMPOUND: "COc1c([C@H]2[C@H](C(=O)Nc3ccc([C@@H](O)[C@@H](C)O)nc3)O[C@@](C)(C(F)(F)F)[C@H]2C)ccc(F)c1F (single isomer, unassigned)"
  RESULT: "< 0.01 µM"
- COMPOUND: "COc1c(C2C(C(=O)Nc3ccc(CO)nc3)OC(C)(C(F)(F)F)C2C)ccc(C(F)F)c1F (single isomer, unassigned) [Compound 90]"
  RESULT: "≥ 1 µM"
- COMPOUND: "COc1c([C@@H]2[C@@H](C(=O)Nc3ccc([C@H](O)CO)nc3)O[C@](C)(C(F)(F)F)[C@@H]2C)ccc(F)c1C(F)F (single isomer, unassigned)"
  RESULT: "≥ 1 µM"
- COMPOUND: "CC(C)Oc1c(C2C(C(=O)Nc3cnc(C(O)CO)nc3)OC(C)(C(F)(F)F)C2C)ccc(F)c1F (centres unmarked)"
  RESULT: "0.01 to 0.1 µM"
- COMPOUND: "COc1c([C@H]2[C@H](C(=O)Nc3ccc([C@H](O)CO)nc3)O[C@@](C)(C(F)(F)F)[C@H]2C)ccc(F)c1F (single isomer, unassigned)"
  RESULT: "< 0.01 µM"
- COMPOUND: "COc1c(C2C(C(=O)Nc3cnc(CO)nc3)OC(C)(C(F)(F)F)C2C)ccc(F)c1C(F)F (single isomer, unassigned) [Compound 55]"
  RESULT: "0.1 to 1 µM"
- COMPOUND: "CCOc1c([C@H]2[C@H](C(=O)Nc3ccc([C@H](O)CO)nc3)O[C@@](C)(C(F)(F)F)[C@H]2C)ccc(F)c1F"
  RESULT: "< 0.01 µM"
- COMPOUND: "CCOc1c([C@H]2[C@H](C(=O)Nc3ccc([C@H](O)CO)nc3)O[C@@](C)(C(F)(F)F)[C@H]2C)ccc(F)c1C (single isomer, unassigned)"
  RESULT: "< 0.01 µM"

Sourced from patent US11827627B2
